Test: log P by HPLC on a reversed-phase column (C 18), EEC Directive 79/831 Annex V.A8
Assay type: physicochemical
Conditions: pH 2.7
From the text: Called log P (HCOOH) in the table. Called log P (neutral) in the table.
assay_metric: LOGP_HCOOH (log P (HCOOH))

smiles_notation: CCS(=O)(=O)c1ccc(-n2ccc3cccnc32)nc1-c1nc2cc(C(F)(F)F)ncc2n1C
endpoint_value: 3.76
//
smiles_notation: CCS(=O)(=O)c1ccc(-c2ccc3nn(C)cc3c2)nc1-c1nc2cc(C(F)(F)F)ncc2n1C
endpoint_value: 2.62
//
smiles_notation: CCS(=O)(=O)c1ccc(-n2c(=O)[nH]c3ccc(Cl)cc32)nc1-c1nc2cc(C(F)(F)F)ncc2n1C
endpoint_value: 2.97
//
smiles_notation: CCS(=O)(=O)c1ccc(-n2ncc3cc(Cl)ccc32)nc1-c1nc2cc(C(F)(F)F)ncc2n1C
endpoint_value: 4.03

Values from patent US10375962B2
